target: PXR (NR1I2) (Homo sapiens, UniProt O75469); experiment: ATG_PXRE_CIS: Factorial reporter gene assay (HepG2); format: cell-based; set-up: endogenous in cells; host or cells: HepG2; settings: HepG2; scale not given, looks like -log10 of molar active concentration; 0 = no activity
Sequence (O75469 whole entry): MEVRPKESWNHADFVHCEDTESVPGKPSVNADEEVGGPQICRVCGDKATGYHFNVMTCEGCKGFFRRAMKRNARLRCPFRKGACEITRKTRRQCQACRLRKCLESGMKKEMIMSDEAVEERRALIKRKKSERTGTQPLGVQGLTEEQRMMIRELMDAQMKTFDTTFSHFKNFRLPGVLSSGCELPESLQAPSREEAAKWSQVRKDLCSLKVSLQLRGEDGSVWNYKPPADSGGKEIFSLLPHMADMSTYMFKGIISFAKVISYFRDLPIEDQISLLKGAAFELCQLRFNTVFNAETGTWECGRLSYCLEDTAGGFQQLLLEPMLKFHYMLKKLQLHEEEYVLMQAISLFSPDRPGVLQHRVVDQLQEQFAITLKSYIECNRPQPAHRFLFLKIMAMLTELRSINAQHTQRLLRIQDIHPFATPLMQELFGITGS

[
  {
    "compound": "COc1ccc(-c2ccccc2)cc1NNC(=O)OC(C)C",
    "ATG_PXRE_CIS": 4.921
  },
  {
    "compound": "CCSC(=O)N(CC(C)C)CC(C)C",
    "ATG_PXRE_CIS": 0
  },
  {
    "compound": "C=CCOC(=O)C(C)(C)OC(=O)c1cc(-n2c(=O)cc(C(F)(F)F)n(C)c2=O)ccc1Cl",
    "ATG_PXRE_CIS": 0
  },
  {
    "compound": "CC(C)OC(=O)Nc1cccc(Cl)c1",
    "ATG_PXRE_CIS": 4.658
  },
  {
    "compound": "COC(=O)c1ccccc1CS(=O)(=O)NC(=O)Nc1nc(OC)cc(OC)n1",
    "ATG_PXRE_CIS": 4.337
  },
  {
    "compound": "Cc1c(COC(=O)C2C(/C=C(\\Cl)C(F)(F)F)C2(C)C)cccc1-c1ccccc1 (centres unmarked)",
    "ATG_PXRE_CIS": 4.854
  },
  {
    "compound": "OB(O)O",
    "ATG_PXRE_CIS": 4.229
  },
  {
    "compound": "COc1nc(C)nc(NC(=O)NS(=O)(=O)c2ccccc2Cl)n1 [r63]",
    "ATG_PXRE_CIS": 0
  },
  {
    "compound": "CCC(C)Nc1c([N+](=O)[O-])cc(C(C)(C)C)cc1[N+](=O)[O-] (centres unmarked)",
    "ATG_PXRE_CIS": 5.143
  },
  {
    "compound": "CCC(C)n1c(=O)[nH]c(C)c(Br)c1=O (centres unmarked)",
    "ATG_PXRE_CIS": 4.347
  },
  {
    "compound": "CC(C)N1C(=O)c2ccccc2NS1(=O)=O",
    "ATG_PXRE_CIS": 4.638
  }
]

----------
Test system: CYP2B6
Experiment: CLZD_CYP2B6: Change in expression of CYP2B6 (primary human hepatocytes)
Assay type: cell-based
Settings: 24 hr
Description: This is a collection of multiplexed gene expression assays focused on Phase I and II xenobiotic metabolizing enzymes and transporters. Human primary cell cultures were treated with chemicals at 5 concentrations (0.004-40 [drawing 42] M) for 6, 24 and 48 hr. Concentration- and time-response profiles of chemicals were measured by the expression of key nuclear receptor target genes, activities of CYP1A enzymes (EROD), and cell morphology. […]
measured_metric: CLZD_CYP2B6_24

[
  {
    "compound": "CCCCC(CC)CN1C(=O)C2C3C=CC(C3)C2C1=O (centres unmarked)",
    "measured_metric": "CLZD_CYP2B6_24",
    "numeric_readout": 5.005
  },
  {
    "compound": "C#CCC1=C(C)[C@H](OC(=O)[C@H]2[C@H](C=C(C)C)C2(C)C)CC1=O",
    "measured_metric": "CLZD_CYP2B6_24",
    "numeric_readout": 5.011
  },
  {
    "compound": "CCNc1nc(Cl)nc(NCC)n1",
    "measured_metric": "CLZD_CYP2B6_24",
    "numeric_readout": 4.983
  },
  {
    "compound": "CC(C)(C)[C@H](O)[C@H](Cc1ccc(Cl)cc1)n1cncn1",
    "measured_metric": "CLZD_CYP2B6_24",
    "numeric_readout": 5.403
  },
  {
    "compound": "CCOc1cc(Oc2ccc(C(F)(F)F)cc2Cl)ccc1[N+](=O)[O-]",
    "measured_metric": "CLZD_CYP2B6_24",
    "numeric_readout": 5.028
  },
  {
    "compound": "COc1nc(NC(C)C)nc(NC(C)C)n1",
    "measured_metric": "CLZD_CYP2B6_24",
    "numeric_readout": 4.907
  },
  {
    "compound": "CCCC1COC(Cn2cncn2)(c2ccc(Cl)cc2Cl)O1 (centres unmarked)",
    "measured_metric": "CLZD_CYP2B6_24",
    "numeric_readout": 6.312
  },
  {
    "compound": "CCCCOCCOCCOCc1cc2c(cc1CCC)OCO2",
    "measured_metric": "CLZD_CYP2B6_24",
    "numeric_readout": 5.592
  },
  {
    "compound": "Cc1cc(C)nc(Nc2ccccc2)n1",
    "measured_metric": "CLZD_CYP2B6_24",
    "numeric_readout": 5.27
  },
  {
    "compound": "CNC(=O)Oc1ccccc1OC(C)C",
    "measured_metric": "CLZD_CYP2B6_24",
    "numeric_readout": 5.434
  },
  {
    "compound": "COc1cnc(OC)n2nc(NS(=O)(=O)c3c(OCC(F)F)cccc3C(F)(F)F)nc12",
    "measured_metric": "CLZD_CYP2B6_24",
    "numeric_readout": 4.844
  }
]

----------
system: CYP2B6; assay: CLZD_CYP2B6: Change in expression of CYP2B6 (primary human hepatocytes); format: cell-based; settings: 24 hr, scale not given, looks like -log10 of molar active concentration, 0 = no activity
# reported CLZD_CYP2B6_24; entries follow

[
  {
    "molecule": "CC(C)(c1ccc(O)cc1)c1ccc(O)cc1",
    "test_target": "CYP2B6",
    "CLZD_CYP2B6_24": 0
  },
  {
    "molecule": "Cc1c(COC(=O)C2C(/C=C(\\Cl)C(F)(F)F)C2(C)C)cccc1-c1ccccc1 (centres unmarked)",
    "test_target": "CYP2B6",
    "CLZD_CYP2B6_24": 5.042
  },
  {
    "molecule": "N#Cc1c(Cl)c(Cl)c(Cl)c(C#N)c1Cl",
    "test_target": "CYP2B6",
    "CLZD_CYP2B6_24": 0
  },
  {
    "molecule": "Cc1ccccc1CO[C@@H]1C[C@@]2(C(C)C)CC[C@]1(C)O2",
    "test_target": "CYP2B6",
    "CLZD_CYP2B6_24": 0
  },
  {
    "molecule": "COc1nc(C)nc(NC(=O)NS(=O)(=O)c2ccccc2Cl)n1 [r62]",
    "test_target": "CYP2B6",
    "CLZD_CYP2B6_24": 0
  }
]

----------
# reported CLZD_CYP3A4_24; entries follow
test system: CYP3A4; assay: CLZD_CYP3A4: Change in expression of CYP3A4 (primary human hepatocytes); assay type: cell-based; details: 24 hr, scale not given, looks like -log10 of molar active concentration, 0 = no activity
measured_metric: CLZD_CYP3A4_24

[
  {
    "compound": "CC(C)OC(=O)Nc1cccc(Cl)c1 [r59]",
    "test_target": "CYP3A4",
    "numeric_readout": 4.864
  },
  {
    "compound": "CC(C)N1C(=O)N(c2ccccc2)CS/C1=N\\C(C)(C)C [r45]",
    "test_target": "CYP3A4",
    "numeric_readout": 4.966
  },
  {
    "compound": "CCCCOCN(C(=O)CCl)c1c(CC)cccc1CC [r46]",
    "test_target": "CYP3A4",
    "numeric_readout": 0
  },
  {
    "compound": "Cc1ccccc1CO[C@@H]1C[C@@]2(C(C)C)CC[C@]1(C)O2 [r64]",
    "test_target": "CYP3A4",
    "numeric_readout": 5.116
  },
  {
    "compound": "CCC(C)n1c(=O)[nH]c(C)c(Br)c1=O (stereo not drawn) [r43]",
    "test_target": "CYP3A4",
    "numeric_readout": 5.055
  },
  {
    "compound": "CCSC(=O)N(CC(C)C)CC(C)C [r49]",
    "test_target": "CYP3A4",
    "numeric_readout": 0
  },
  {
    "compound": "COc1cc(Cl)c(OC)cc1Cl [r57]",
    "test_target": "CYP3A4",
    "numeric_readout": 0
  },
  {
    "compound": "N#Cc1c(Cl)c(Cl)c(Cl)c(C#N)c1Cl [r58]",
    "test_target": "CYP3A4",
    "numeric_readout": 0
  },
  {
    "compound": "COC(=O)c1ccccc1CS(=O)(=O)NC(=O)Nc1nc(OC)cc(OC)n1 [r33]",
    "test_target": "CYP3A4",
    "numeric_readout": 0
  },
  {
    "compound": "O=C1C2CC=CCC2C(=O)N1SC(Cl)(Cl)Cl (stereo not drawn) [r51]",
    "test_target": "CYP3A4",
    "numeric_readout": 0
  },
  {
    "compound": "COc1ccc(-c2ccccc2)cc1NNC(=O)OC(C)C [r38]",
    "test_target": "CYP3A4",
    "numeric_readout": 0
  },
  {
    "compound": "N#Cc1cc(Br)c(O)c(Br)c1 [r44]",
    "test_target": "CYP3A4",
    "numeric_readout": 0
  }
]
